Taken from paper PMC12136037.

- Test system: ~100 representative kinases
- Test method notes: DSF 100 kinase selectivity screen
- Format: binding
- Details: DSF selectivity panel, thermal shift >5 K
Recorded S (5 K) / share of screened kinases stabilized by entry
Property: S (5 K) / share of screened kinases stabilized (%)

1. CC(C)(C)c1cc(NC(=O)Nc2cccc(-c3c[nH]c4ncnc(N5CCOCC5)c34)c2)n(-c2ccc3ncccc3c2)n1: 49
2. Cc1ccc(-n2nc(C(C)(C)C)cc2NC(=O)Nc2cccc(-c3c[nH]c4nc(Cl)nc(N5CCOCC5)c34)c2)cc1: 10
3. O=C(Nc1cccc(-c2c[nH]c3ncnc(N4CCOCC4)c23)c1)C1(C(=O)Nc2ccc(F)c(Br)c2F)CC1: 14
4. O=C(Nc1cccc(-c2c[nH]c3ncnc(N4CCOCC4)c23)c1)C1(C(=O)Nc2ccc(F)cc2F)CC1: 16
